Item-by-item account of cytotoxicity at 70.5 h
- PROTOCOL SUMMARY: Human HepG2 cell viability assay in 384 well format
- Assay type: toxicity, cell-based
- Set-up: dose 125 nL, time 70.5 hour; concentration not given beside the values
- STATED CONDITIONS: HepG2 cells, read-out: Inhibition
All answers are understood in %, so give the number only.

These solved cases illustrate the format of a correct answer.
# COMPOUND, UNITS, cytotoxicity at 70.5 h
rows = [
    ("COCc1cccc(C(=O)N2CCN(C3=NCC(C)(C)S3)CC2)c1", "%", -3.27),
    ("Cc1cc(C)n(CC2CN(CCOc3cccc(F)c3)CCO2)n1 (stereo not drawn)", "%", 1.51),
    ("Fc1cccc(F)c1Cn1c(C2CCCNC2)cc2cccnc21 (stereo not drawn)", "%", -5.53),
]

Now examine the next entry.
For reference, reported cytotoxicity at 70.5 h for Cc1cnc(CN(C)C2CCN(CCc3cnn(C)c3)C2)o1 (stereo not drawn) stands at -0.678

---

- PROTOCOL SUMMARY: Human HepG2 cell viability assay in 384 well format
- Assay type: toxicity, cell-based
- Parameters: dose 125 nL, time 70.5 hour; concentration not given beside the values
- STATED CONDITIONS: HepG2 cells, read-out: Inhibition
MEASURED METRIC: cytotoxicity at 70.5 h (%)
Reply numerically in %, unit not repeated.

# SMILES REPR, cytotoxicity at 70.5 h (%)
measured = [
    ("O=C(Nc1cccnc1)[C@@H]1C[C@H]2OCC[C@H]2N(Cc2ccsc2)C1", 0.225),
]

The recorded cytotoxicity at 70.5 h for entry `Cn1ccnc1CN1CCOC[C@H]1c1nc(C(C)(C)C)co1` equals -1.75

Briefly, cytotoxicity at 70.5 h measured for `Cn1ncnc1CNc1ccccc1C(=O)NC(C)(C)C` : -100

get_value(item= `COCCOc1ccc(CNc2nc3ccccc3o2)cn1` , readout=cytotoxicity at 70.5 h) returns -10.8

---

- PROTOCOL SUMMARY: Human HepG2 cell viability assay in 384 well format
- Format: toxicity, cell-based
- Design: dose 125 nL, time 70.5 hour; concentration not given beside the values
- STATED CONDITIONS: HepG2 cells, read-out: Inhibition
Entries and their measured cytotoxicity at 70.5 h follow.
Reply with just the number (in %).

# annotated cases, reported cytotoxicity at 70.5 h shown
# MOLECULE, MEASURED RESULT
measured = [
    ("COc1ccc(C)cc1C(C)NC(=O)CCn1cncn1 (stereo not drawn)", -5.61),
    ("Cc1oncc1C(=O)N1CC[C@H]2[C@@H]1CCC(=O)N2c1cccnc1", -14.4),
]

Lab note: `CC(C)C(=O)N1CCN(C(=O)c2cc(Cl)no2)[C@H]2CS(=O)(=O)C[C@H]21` gave cytotoxicity at 70.5 h of -2.12

---

- PROTOCOL SUMMARY: Human HepG2 cell viability assay in 384 well format
- Format: toxicity, cell-based
- Set-up: dose 125 nL, time 70.5 hour; concentration not given beside the values
- STATED CONDITIONS: HepG2 cells, read-out: Inhibition
MEASURED METRIC: cytotoxicity at 70.5 h (%)
Note: unit % is implicit; provide only the numeric part.

See these solved cases before continuing.
# COMPOUND, cytotoxicity at 70.5 h (%)
measured = [
    ("Cc1ccc(CN2CCCC3(CCN(Cc4ccoc4)CC3)C2)cc1", 15.4),
    ("CC(=O)N1CCc2nnc(C3CCCCN3CC3CCCCC3)n2CC1 (stereo unspecified)", 12.6),
    ("Cc1cnn(C2CCCN(C(=O)c3sccc3-n3cnnn3)C2)c1 (stereo unspecified)", -2.63),
    ("CC(C)(O)CN1CCN(C(=O)c2cccc3[nH]ncc23)CC1", -1.27),
    ("CC(=O)N(Cc1ncc(C)o1)C1CCN(Cc2nnc(C3CC3)o2)C1 (stereo unspecified)", 10),
    ("CN(C)[C@H]1CCCCN(C(=O)c2cccc(-c3cccc(F)c3)c2)C1", -4.14),
]

Record Cc1ccc(C(CNC(=O)NCc2cc[nH]n2)N2CCOCC2)o1 (stereo unspecified) , field cytotoxicity at 70.5 h: -14.3

For record CC(CN1CCC(c2ccccc2)CC1)n1cnc2ccccc21 (stereo unspecified) the listed cytotoxicity at 70.5 h is -18.3

Form field cytotoxicity at 70.5 h, entry COCCOCC(=O)NC(C#N)c1cccc(Cl)c1Cl (stereo unspecified) : -6.94

Lookup result for `CC(C)Oc1ccc(CSc2nnc(CN3CCCC3=O)o2)cc1` ; measured cytotoxicity at 70.5 h: -7.62

Cc1ccc(CC(=O)N2CCCC(c3cc(C(N)=O)[nH]n3)C2)cn1 (stereo unspecified) has a reported cytotoxicity at 70.5 h of -2.37

For record `CCN(CC)c1nc(Nc2cccc(C(=O)O)c2)nc2ccccc12` the listed cytotoxicity at 70.5 h is -11.2

// sample COCCN(Cc1ccccn1)C(=O)CC1OCCc2ccsc21 (stereo unspecified) , its cytotoxicity at 70.5 h was -1.83

# cytotoxicity at 70.5 h (compound: `Cc1nn(C)c2c(N3CCC(C)CC3)nc(C3CC3)nc12` ) is -11.4

Reported cytotoxicity at 70.5 h of `O=C1NCC[C@]12CN(Cc1cccnc1)C[C@H]2c1ccccc1` : -3.58

Sample CCC1CN(Cc2nnc(C(C)C)o2)CCC(=O)N1Cc1ccccc1 (stereo unspecified) ; cytotoxicity at 70.5 h observed: -10.7

The recorded cytotoxicity at 70.5 h for entry CCCS(=O)(=O)N1CC(=O)N(Cc2ccccc2OC)CC(O)C1 (stereo unspecified) equals 18.5

Documented cytotoxicity at 70.5 h of `O=C(CC1CCCC1)NCCS(=O)(=O)N1CCN(c2ccccn2)CC1` : -13

get_value(item= O=C(NCCCn1nc2ccccn2c1=O)NC1CCC(O)CC1 (stereo unspecified) , readout=cytotoxicity at 70.5 h) returns 9.94

For `CN1CCOCC12CCN(Cc1ccoc1)CC2` the compound record lists cytotoxicity at 70.5 h as -13.2

Kindly note the recorded cytotoxicity at 70.5 h for CN(CC(F)(F)F)C(=O)CNC(=O)N1CCCC(N(C)C)C1 (stereo unspecified) , which is -8.19

Please fill in: cytotoxicity at 70.5 h reported for CCc1noc(C(C)N2CCN(CC(=O)N3CCOCC3)CC2)n1 (stereo unspecified) = -4.7
